- Test system: breast cancer cells (MDA-MB-468)
- ASSAY_COMMENT: Cancer cell line growth inhibition, Sulforhodamine B assay, MDA-MB-468
- Assay type: cell-based
- MEASUREMENT_PARAMETERS: Homo sapiens, MDA-MB-468, MDA-MB-468 breast cancer cell line; read-out: Cancer Cell Line GI50 Range MDA-MB-468
The following molecules are listed with their measured GI50 values.

{"MOLECULE": "Cc1cc(-c2cnn3c(NCCN4CCOCC4)nc(Oc4cccc(F)c4)nc23)ccc1C(=O)NC1CC1", "GI50": "100 to 500 nM"}
{"MOLECULE": "Cc1cc(-c2cnn3c(NCC4CCOCC4)cc(NCC4COC4)nc23)ccc1C(=O)NC1CC1", "GI50": "100 to 500 nM"}
{"MOLECULE": "Cc1cc(-c2cnn3c(NC[C@H]4CC[C@@H](O)CC4)cc(NC4CCOCC4)nc23)ccc1C(=O)NC1CC1", "GI50": "≤ 100 nM"}
{"MOLECULE": "O=C(NC1CC1)c1ccc(-c2cnn3c(NCC4CCOCC4)nc(Nc4ccccc4)nc23)cc1Cl", "GI50": "> 500 nM"}
{"MOLECULE": "O=C(NC1CC1)c1ccc(-c2cnn3c(NCCN4CCOCC4)cc(Oc4cccc(F)c4)nc23)cc1Cl", "GI50": "≤ 100 nM"}
{"MOLECULE": "COCCNc1nc(OC2CCCC2)nc2c(-c3ccc(C(=O)NC4CC4)cc3)cnn12", "GI50": "100 to 500 nM"}
{"MOLECULE": "Cc1cc(-c2cnn3c(NCC4CCOCC4)nc(Oc4ccccc4F)nc23)ccc1C(=O)NC1CC1", "GI50": "100 to 500 nM"}
{"MOLECULE": "Cc1cc(-c2cnn3c(NCCN4CCOCC4)cc(Oc4cccnc4)nc23)ccc1C(=O)NC1CC1", "GI50": "100 to 500 nM"}
{"MOLECULE": "Cc1cc(-c2cnn3c(NCC4CCOCC4)cc(NC4CCC4)nc23)ccc1C(=O)NC1CC1", "GI50": "100 to 500 nM"}
{"MOLECULE": "Cc1cc(-c2cnn3c(NCC4CCOCC4)cc(N[C@@H]4CCCC[C@@H]4O)nc23)ccc1C(=O)NC1CC1", "GI50": "100 to 500 nM"}
{"MOLECULE": "Cc1cc(-c2cnn3c(NC[C@H]4C[C@H](O)C4)cc(Oc4cccnc4)nc23)ccc1C(=O)NC1CC1", "GI50": "≤ 100 nM"}
{"MOLECULE": "Cc1cc(-c2cnn3c(NCCN4CCOCC4)cc(Oc4ccc(F)cc4)nc23)ccc1C(=O)NC1CC1", "GI50": "100 to 500 nM"}
{"MOLECULE": "O=C(NC1CC1)c1ccc(-c2cnn3c(NCCN4CCOCC4)cc(Oc4ccccc4)nc23)cc1Cl", "GI50": "≤ 100 nM"}
{"MOLECULE": "Cc1cc(-c2cnn3c(NCC4CCOCC4)cc(N4CC[C@H](O)C4)nc23)ccc1C(=O)NC1CC1", "GI50": "> 500 nM"}
{"MOLECULE": "Cc1cc(-c2cnn3c(NCC4CCOCC4)cc(N[C@@H]4CCOC4)nc23)ccc1C(=O)NC1CC1", "GI50": "≤ 100 nM"}
{"MOLECULE": "Cc1cc(-c2cnn3c(NCC4(F)CCNCC4)cc(OC4CCCC4)nc23)ccc1C(=O)NC1CC1", "GI50": "> 500 nM"}
{"MOLECULE": "Cc1cc(-c2cnn3c(NCC4CCOCC4)cc(N[C@@H]4CCCOC4)nc23)ccc1C(=O)NC1CC1", "GI50": "100 to 500 nM"}
{"MOLECULE": "Cc1cc(-c2cnn3c(NCCN4CCC(F)CC4)cc(Oc4cccc(F)c4F)nc23)ccc1C(=O)NC1CC1", "GI50": "≤ 100 nM"}
{"MOLECULE": "Cc1cc(-c2cnn3c(NCC4CCOCC4)cc(N4C5CCC4CC(O)C5)nc23)ccc1C(=O)NC1CC1 (centres unmarked)", "GI50": "100 to 500 nM"}
{"MOLECULE": "Cc1cc(-c2cnn3c(NCC4CCOCC4)cc(N[C@H](CO)C4CCCC4)nc23)ccc1C(=O)NC1CC1", "GI50": "100 to 500 nM"}
{"MOLECULE": "Cc1cc(-c2cnn3c(NCC4(F)CCN(C)CC4)cc(Oc4cccc(F)c4)nc23)ccc1C(=O)NC1CC1", "GI50": "≤ 100 nM"}
{"MOLECULE": "Cc1cc(-c2cnn3c(NCC4CCOCC4)cc(N[C@H](CO)C4CCCCC4)nc23)ccc1C(=O)NC1CC1", "GI50": "100 to 500 nM"}
{"MOLECULE": "Cc1cc(-c2cnn3c(NCCCn4ccnc4)cc(Oc4ccccc4)nc23)ccc1C(=O)NC1CC1", "GI50": "≤ 100 nM"}
{"MOLECULE": "CC[C@H](Nc1cc(NC[C@@H]2CCOC2)n2ncc(-c3ccc(C(=O)NC4CC4)c(C)c3)c2n1)[C@H](C)O", "GI50": "100 to 500 nM"}
{"MOLECULE": "Cc1cc(-c2cnn3c(NC[C@H]4C[C@@H](O)C4)cc(NC4CCOCC4)nc23)ccc1C(=O)NC1CC1", "GI50": "100 to 500 nM"}
{"MOLECULE": "Cc1cc(-c2cnn3c(NCC4CCOCC4)cc(NC4CC5(COC5)C4)nc23)ccc1C(=O)NC1CC1", "GI50": "100 to 500 nM"}
{"MOLECULE": "COc1ccc(Oc2nc(NCC3CCOCC3)n3ncc(-c4ccc(C(=O)NC5CC5)c(C)c4)c3n2)c(F)c1", "GI50": "100 to 500 nM"}
{"MOLECULE": "Cc1cc(-c2cnn3c(NC[C@H]4CC[C@H](O)CC4)cc(Oc4cccnc4)nc23)ccc1C(=O)NC1CC1", "GI50": "100 to 500 nM"}
{"MOLECULE": "Cc1cc(-c2cnn3c(NCC4CC4)cc(Oc4cccnc4)nc23)ccc1C(=O)NC1CC1", "GI50": "≤ 100 nM"}

Every entry's value here was drawn from patent US9573954B2.
